Assay target: Cytochrome P450 1A2 (Rattus norvegicus, UniProt P04799)
Sequence (P04799 whole entry): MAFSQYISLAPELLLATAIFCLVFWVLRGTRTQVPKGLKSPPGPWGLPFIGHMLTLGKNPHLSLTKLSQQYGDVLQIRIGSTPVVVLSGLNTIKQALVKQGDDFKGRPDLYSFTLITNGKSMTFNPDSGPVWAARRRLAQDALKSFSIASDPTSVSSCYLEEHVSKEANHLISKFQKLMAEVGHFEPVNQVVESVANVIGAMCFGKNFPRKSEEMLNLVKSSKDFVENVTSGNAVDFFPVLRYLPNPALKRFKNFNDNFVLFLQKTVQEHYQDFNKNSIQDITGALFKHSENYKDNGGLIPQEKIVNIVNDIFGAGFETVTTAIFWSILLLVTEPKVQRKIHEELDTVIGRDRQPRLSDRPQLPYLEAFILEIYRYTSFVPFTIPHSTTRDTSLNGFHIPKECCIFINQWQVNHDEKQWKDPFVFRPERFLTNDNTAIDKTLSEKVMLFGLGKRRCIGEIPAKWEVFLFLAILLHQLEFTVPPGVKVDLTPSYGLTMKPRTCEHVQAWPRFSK
Property label: IC50 (µM)
Numbers only, in µM.

Incoming: Fill in IC50 for record CC1=C(O)C(=O)C=C2C1=CC=C1[C@@]2(C)CC[C@@]2(C)[C@@H]3C[C@](C)(C(=O)O)CC[C@]3(C)CC[C@]12C [CELASTROL]
Outgoing: 52.8
